The origin of these recorded values is the supplement of paper PMC6555819.

- Tested on: LXRa homodimer (NR concentration 270 nM)
- assay.remarks: PBM binding z-score (relative to random genomic background probes); higher = stronger binding; sequences stand for … in GC…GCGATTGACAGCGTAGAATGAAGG

>  <biosequence>
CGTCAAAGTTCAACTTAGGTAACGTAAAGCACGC

>  <PBM binding z-score>
4.88

$$$$
>  <biosequence>
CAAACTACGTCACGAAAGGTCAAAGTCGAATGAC

>  <PBM binding z-score>
6.22

$$$$
>  <biosequence>
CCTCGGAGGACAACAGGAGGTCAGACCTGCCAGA

>  <PBM binding z-score>
2.37

$$$$
>  <biosequence>
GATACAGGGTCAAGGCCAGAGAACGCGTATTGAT

>  <PBM binding z-score>
0.0774

$$$$
>  <biosequence>
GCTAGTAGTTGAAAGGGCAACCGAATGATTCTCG

>  <PBM binding z-score>
0.0629

$$$$
>  <biosequence>
CCGAGTAGCTTATGGGGCATTCAGGCAACGGTGA

>  <PBM binding z-score>
-0.883

$$$$
>  <biosequence>
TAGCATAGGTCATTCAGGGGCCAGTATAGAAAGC

>  <PBM binding z-score>
1.82

$$$$
>  <biosequence>
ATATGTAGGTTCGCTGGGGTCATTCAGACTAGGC

>  <PBM binding z-score>
1.89

$$$$
>  <biosequence>
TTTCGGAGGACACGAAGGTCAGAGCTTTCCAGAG

>  <PBM binding z-score>
0.81

$$$$
>  <biosequence>
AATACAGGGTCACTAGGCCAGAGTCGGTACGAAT

>  <PBM binding z-score>
0.695

$$$$
>  <biosequence>
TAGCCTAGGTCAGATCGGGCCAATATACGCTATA

>  <PBM binding z-score>
0.0992

$$$$
>  <biosequence>
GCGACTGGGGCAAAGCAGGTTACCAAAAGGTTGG

>  <PBM binding z-score>
-0.168

$$$$

* * *

- System: LXRb homodimer (NR concentration 270 nM)
- assay.remarks: PBM binding z-score (relative to random genomic background probes); higher = stronger binding; sequences stand for … in GC…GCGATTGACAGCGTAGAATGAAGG
Use Satisfied when the recorded PBM binding z-score is no lower than -0.005; use Not satisfied when it is lower.

>  <biosequence>
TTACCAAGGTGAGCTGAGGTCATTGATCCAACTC

>  <classification>
Not satisfied

$$$$
>  <biosequence>
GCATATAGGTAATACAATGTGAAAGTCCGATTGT

>  <classification>
Not satisfied

$$$$
>  <biosequence>
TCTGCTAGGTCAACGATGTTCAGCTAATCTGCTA

>  <classification>
Not satisfied

$$$$
>  <biosequence>
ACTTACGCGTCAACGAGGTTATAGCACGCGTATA

>  <classification>
Satisfied

$$$$
>  <biosequence>
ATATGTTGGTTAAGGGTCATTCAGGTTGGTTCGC

>  <classification>
Satisfied

$$$$
>  <biosequence>
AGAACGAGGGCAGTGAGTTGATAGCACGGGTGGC

>  <classification>
Not satisfied

$$$$
>  <biosequence>
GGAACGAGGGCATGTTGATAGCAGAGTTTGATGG

>  <classification>
Not satisfied

$$$$
>  <biosequence>
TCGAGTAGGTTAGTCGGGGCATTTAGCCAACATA

>  <classification>
Not satisfied

$$$$
>  <biosequence>
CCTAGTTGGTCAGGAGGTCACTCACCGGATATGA

>  <classification>
Satisfied

$$$$
>  <biosequence>
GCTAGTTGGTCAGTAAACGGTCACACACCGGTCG

>  <classification>
Not satisfied

$$$$
>  <biosequence>
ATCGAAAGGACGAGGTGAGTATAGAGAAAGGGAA

>  <classification>
Not satisfied

$$$$
>  <biosequence>
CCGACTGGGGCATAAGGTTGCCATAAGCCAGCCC

>  <classification>
Not satisfied

$$$$
>  <biosequence>
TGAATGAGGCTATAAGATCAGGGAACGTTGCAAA

>  <classification>
Not satisfied

$$$$
>  <biosequence>
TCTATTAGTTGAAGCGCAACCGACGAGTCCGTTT

>  <classification>
Satisfied

$$$$
>  <biosequence>
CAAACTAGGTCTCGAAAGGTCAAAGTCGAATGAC

>  <classification>
Satisfied

$$$$
>  <biosequence>
GCAGACTGGTGAAACGCAGGTAACTCAGGGTGGC

>  <classification>
Not satisfied

$$$$
>  <biosequence>
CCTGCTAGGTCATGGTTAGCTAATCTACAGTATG

>  <classification>
Not satisfied

$$$$
>  <biosequence>
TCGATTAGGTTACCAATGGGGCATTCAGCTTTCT

>  <classification>
Not satisfied

$$$$
>  <biosequence>
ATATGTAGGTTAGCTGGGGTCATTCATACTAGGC

>  <classification>
Satisfied

$$$$
>  <biosequence>
TCTTGTAGATCAATGGTTAAGAAAGCCGAAGCCT

>  <classification>
Not satisfied

$$$$
>  <biosequence>
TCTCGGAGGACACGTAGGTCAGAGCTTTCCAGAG

>  <classification>
Not satisfied

$$$$
>  <biosequence>
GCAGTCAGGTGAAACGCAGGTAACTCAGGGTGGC

>  <classification>
Not satisfied

$$$$
>  <biosequence>
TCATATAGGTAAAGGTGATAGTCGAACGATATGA

>  <classification>
Not satisfied

$$$$
>  <biosequence>
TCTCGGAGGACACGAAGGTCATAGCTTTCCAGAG

>  <classification>
Not satisfied

$$$$
>  <biosequence>
ATATGTAGGTTATCGGGTCATTTAGTTTGCGCAT

>  <classification>
Satisfied

$$$$
>  <biosequence>
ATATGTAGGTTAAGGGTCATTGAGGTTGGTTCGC

>  <classification>
Satisfied

$$$$

* * *

- Test system: PXR homodimer (NR concentration 270 nM)
- assay.remarks: PBM binding z-score (relative to random genomic background probes); higher = stronger binding; sequences stand for … in GC…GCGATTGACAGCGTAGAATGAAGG
# label = bin(measured PBM binding z-score), where bins are band 1: < -0.08; band 2: ≥ -0.08 and < 0.9; band 3: ≥ 0.9

>  <biosequence>
CAAACTAGGTCACAGATGTCAAAGTCCGTGCGTA

>  <classification>
band 2

$$$$
>  <biosequence>
CGTCCAAGGTCATAGTAGGTCAGTGAAGACAGAT

>  <classification>
band 3

$$$$
>  <biosequence>
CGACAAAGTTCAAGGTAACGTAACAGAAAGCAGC

>  <classification>
band 3

$$$$
>  <biosequence>
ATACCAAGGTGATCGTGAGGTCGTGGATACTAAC

>  <classification>
band 2

$$$$
>  <biosequence>
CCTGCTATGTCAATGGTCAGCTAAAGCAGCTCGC

>  <classification>
band 1

$$$$
>  <biosequence>
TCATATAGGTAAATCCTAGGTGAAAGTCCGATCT

>  <classification>
band 2

$$$$
>  <biosequence>
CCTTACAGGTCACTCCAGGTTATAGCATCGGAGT

>  <classification>
band 2

$$$$
>  <biosequence>
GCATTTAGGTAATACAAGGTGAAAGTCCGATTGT

>  <classification>
band 2

$$$$
>  <biosequence>
TCTTGTAGATCAAACAGGTTAAGAAAGCCTGAGT

>  <classification>
band 2

$$$$
>  <biosequence>
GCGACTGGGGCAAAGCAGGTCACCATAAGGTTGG

>  <classification>
band 1

$$$$
>  <biosequence>
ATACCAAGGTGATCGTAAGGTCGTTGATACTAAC

>  <classification>
band 3

$$$$
>  <biosequence>
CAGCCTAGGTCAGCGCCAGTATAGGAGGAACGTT

>  <classification>
band 1

$$$$
>  <biosequence>
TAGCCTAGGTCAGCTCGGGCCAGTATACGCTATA

>  <classification>
band 1

$$$$
>  <biosequence>
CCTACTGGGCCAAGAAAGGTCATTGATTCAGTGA

>  <classification>
band 3

$$$$
>  <biosequence>
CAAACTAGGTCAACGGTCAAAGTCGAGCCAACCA

>  <classification>
band 2

$$$$
>  <biosequence>
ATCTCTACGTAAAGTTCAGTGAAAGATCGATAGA

>  <classification>
band 3

$$$$
>  <biosequence>
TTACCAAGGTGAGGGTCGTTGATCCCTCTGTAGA

>  <classification>
band 1

$$$$
>  <biosequence>
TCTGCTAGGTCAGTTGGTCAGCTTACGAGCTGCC

>  <classification>
band 1

$$$$
>  <biosequence>
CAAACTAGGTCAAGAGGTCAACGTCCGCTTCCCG

>  <classification>
band 3

$$$$
>  <biosequence>
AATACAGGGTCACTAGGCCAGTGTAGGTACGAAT

>  <classification>
band 2

$$$$
>  <biosequence>
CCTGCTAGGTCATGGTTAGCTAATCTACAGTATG

>  <classification>
band 1

$$$$
>  <biosequence>
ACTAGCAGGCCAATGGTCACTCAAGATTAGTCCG

>  <classification>
band 1

$$$$
>  <biosequence>
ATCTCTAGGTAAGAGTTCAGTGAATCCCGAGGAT

>  <classification>
band 3

$$$$
>  <biosequence>
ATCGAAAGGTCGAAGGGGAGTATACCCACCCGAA

>  <classification>
band 2

$$$$
